Tested on: influenza A/H7N9 virus
Assay type: cell-based
readout.name: EC50

Q: Reported EC50 for `O=C1c2c(O)c(=O)ccn2N([C@@H]2c3ccccc3SCc3c2ccc(F)c3F)[C@@H]2COCCN12` : what is it?
A: < 0.03 nM
